# Tested on: OVCAR-3 ovarian
# experiment-notes: NCI-60 one-dose screen, 48 h
# condition-description: 10 µM unless noted
This is part of a sample that, as a whole, favours compounds with a hit. Of some 83,000 tested, about 20% had one in any assay. The source made the active and inactive calls. Rule for the calls: active = growth percent below 10; inactive = the rest.
Possible outcomes: active, inactive

[
  {
    "molecule": "COc1ccc(S(=O)(=O)Nc2cc(/C=C\\c3cc(OC)c(OC)c(OC)c3)cc(OC)c2OC)cc1",
    "measurement-target": "OVCAR-3 ovarian",
    "label-value": "active"
  },
  {
    "molecule": "Cc1csc(NC(c2ccccc2)c2c(C)nc3ccccn23)n1 (stereo unspecified)",
    "measurement-target": "OVCAR-3 ovarian",
    "label-value": "inactive"
  },
  {
    "molecule": "CN(C)CCCC(C#N)c1ccccc1 (stereo unspecified)",
    "measurement-target": "OVCAR-3 ovarian",
    "label-value": "inactive"
  },
  {
    "molecule": "COc1cccc(/C=C2\\Oc3cc(OCCCN4CCCC4)ccc3C2=O)c1",
    "measurement-target": "OVCAR-3 ovarian",
    "label-value": "inactive"
  },
  {
    "molecule": "Oc1ccc2cc(Br)ccc2c1-c1c(O)ccc2cc(Br)ccc12",
    "measurement-target": "OVCAR-3 ovarian",
    "label-value": "inactive"
  },
  {
    "molecule": "NC1=C(/C(N)=N/O)C(c2ccccc2)c2ccc3ccccc3c2O1 (stereo unspecified)",
    "measurement-target": "OVCAR-3 ovarian",
    "label-value": "active"
  }
]

---

# Tested on: OVCAR-4 ovarian
# experiment-notes: NCI-60 one-dose screen, 48 h (100 = growth as untreated, 0 = no growth, -100 = all killed)
# condition-description: 10 µM unless noted
This is part of a sample that, as a whole, favours compounds with a hit. Of some 83,000 tested, about 20% had one in any assay.

[
  {
    "molecule": "C=C[C@@H]1C[C@H](O)Cc2ccccc2N1",
    "growth [%]": 113
  },
  {
    "molecule": "CNc1ccc(Br)c2c1C(=O)c1ccccc1C2=O",
    "growth [%]": 100
  },
  {
    "molecule": "COc1ccc(-c2ccc(-c3ccc(C(=N)N)cn3)s2)cc1OC",
    "growth [%]": 96.1
  },
  {
    "molecule": "O=C1CS/C(=N\\Nc2cc(=O)[nH]c3ccccc23)N1c1ccccc1",
    "growth [%]": 97
  },
  {
    "molecule": "CN(C)c1ncnc2c1ccn2C1OC(CO)C(O)C1O (stereo unspecified)",
    "growth [%]": 33.3
  },
  {
    "molecule": "COc1ccc2cc(-c3ccc(-c4ccc(C(=N)N)cc4)s3)ccc2c1",
    "growth [%]": 97.3
  }
]

---

# Tested on: SR leukemia
# experiment-notes: NCI-60 one-dose screen, 48 h (100 = growth as untreated, 0 = no growth, -100 = all killed)
# condition-description: 10 µM unless noted
About 83,000 compounds went through this panel and 20% of them were active in at least one assay; those are over-represented in the sample as a whole.

[
  {
    "sample-smiles": "COc1ccc2c(c1)[nH]c(=O)c1c3cccc(F)c3cn21",
    "unit-abbreviation": "%",
    "growth": 39.9
  },
  {
    "sample-smiles": "Cc1cc(N/N=C/c2nc(-c3ccc(Br)cc3)oc2C)c2cc(Br)ccc2n1",
    "unit-abbreviation": "%",
    "growth": 2.16
  },
  {
    "sample-smiles": "O=C(CN1CCN(c2cc3c(cc2F)c(=O)c(C(=O)N/N=C/c2ccccc2O)cn3C2CC2)CC1)N/N=C\\c1ccccc1O",
    "unit-abbreviation": "%",
    "growth": 14.6
  },
  {
    "sample-smiles": "Fc1ccccc1-c1nc(-c2nc3cc(Cl)c(Cl)cc3[nH]2)c2ccccn12",
    "unit-abbreviation": "%",
    "growth": 20.7
  },
  {
    "sample-smiles": "Cn1ncc2c(Sc3ccc(Cl)cc3)ncnc21",
    "unit-abbreviation": "%",
    "growth": 53.6
  }
]
